Documented IC50 across a set of compounds
test system: HeLa; experiment: Antiviral activity against Rhinovirus (RV-14) in HeLa cells using CPE/XTT assay; type: functional, cell-based; conditions: Homo sapiens

SMILES REPR | TARGET DESC | IC50 [µg/mL]
CSc1nc2ccc(/C(=N/O)c3ccccc3)cc2n1S(=O)(=O)C(C)C | HeLa | 0.76
CNc1nc2ccc(/C(=N/O)c3ccccc3)cc2n1S(=O)(=O)C(C)C | HeLa | 24.4
CC(C)S(=O)(=O)n1c(N(C)C)nc2ccc(/C(=N/O)c3ccccc3)cc21 | HeLa | 49
Cc1nc2ccc(/C(=N/O)c3ccccc3)cc2n1S(=O)(=O)C(C)C | HeLa | 0.34
CC(C)S(=O)(=O)n1c(N)nc2ccc(/C(=N/O)c3ccccc3)cc21 | HeLa | 0.04
CC(C)S(=O)(=O)n1cnc2ccc(/C(=N/O)c3ccccc3)cc21 | HeLa | 0.53
COc1nc2ccc(/C(=N/O)c3ccccc3)cc2n1S(=O)(=O)C(C)C | HeLa | 0.48

---

test system: HeLa; assay: Antiviral activity against Poliovirus (PV-1) in HeLa cells using CPE/XTT assay; format: functional, cell-based; settings: Homo sapiens

COMPOUND | TARGET DESC | IC50 (µg/mL)
CC(C)S(=O)(=O)n1c(N(C)C)nc2ccc(/C(=N/O)c3ccccc3)cc21 | HeLa | 4.55
CSc1nc2ccc(/C(=N/O)c3ccccc3)cc2n1S(=O)(=O)C(C)C | HeLa | 0.59
CC(C)S(=O)(=O)n1c(N)nc2ccc(/C(=N/O)c3ccccc3)cc21 [ENVIROXIME] | HeLa | 0.06
CC(C)S(=O)(=O)n1cnc2ccc(/C(=N/O)c3ccccc3)cc21 | HeLa | 0.57
Cc1nc2ccc(/C(=N/O)c3ccccc3)cc2n1S(=O)(=O)C(C)C | HeLa | 0.23
CNc1nc2ccc(/C(=N/O)c3ccccc3)cc2n1S(=O)(=O)C(C)C | HeLa | 6.16
COc1nc2ccc(/C(=N/O)c3ccccc3)cc2n1S(=O)(=O)C(C)C | HeLa | 0.57
